# system: hNMUR1 (Homo sapiens)
# Sequence (Q9HB89 whole entry): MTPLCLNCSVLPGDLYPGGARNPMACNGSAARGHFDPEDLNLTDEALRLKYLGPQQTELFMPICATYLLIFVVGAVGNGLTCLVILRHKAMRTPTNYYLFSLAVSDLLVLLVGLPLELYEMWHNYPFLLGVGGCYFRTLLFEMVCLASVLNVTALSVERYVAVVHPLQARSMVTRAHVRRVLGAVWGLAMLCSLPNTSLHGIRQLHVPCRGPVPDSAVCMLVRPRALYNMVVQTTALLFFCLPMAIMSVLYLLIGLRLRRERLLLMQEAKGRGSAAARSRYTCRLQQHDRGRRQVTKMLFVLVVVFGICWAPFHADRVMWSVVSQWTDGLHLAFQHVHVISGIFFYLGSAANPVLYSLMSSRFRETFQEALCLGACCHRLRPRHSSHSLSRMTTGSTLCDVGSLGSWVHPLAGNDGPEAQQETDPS
# protocolNotes: FLIPR calcium mobilization assay, human NMUR1
# Type: cell-based
# Parameters: expressed in transfected cells; host or cells: FLP-In CHO or HEK-293 FLP-In cells (pcDNA5); HEK-293/aeq17 lines (pIRES-puro) were also made
# studyConditions: maximum response at 1 μM compared to hNMU-25 response at same concentration; human NMUR1
No end group written: not given here.
propertyLabel: % Activity (%)
Hi! Could you send only the number? It should be in %, unit omitted.

Solved entries:
- substance: "GYFLFRPRN-NH2 [NMU3]"
  propertyLabel: "% Activity"
  value: 98.9
- substance: "Ac-C4-C4-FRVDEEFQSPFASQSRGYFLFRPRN-CONH2 ({Ac-C(PEG 20 kDa)-C(PEG 20 kDa)}-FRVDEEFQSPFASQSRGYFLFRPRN-NH2) [NMU23, C4 = Cys(PEG)20 kDa]"
  propertyLabel: "% Activity"
  value: 66.9
- substance: "Ac-C2FRVDEEFQSPFASQSRGYFLFRPRN-CONH2 [NMU9] ({Ac-C(PEG 40 kDa)}-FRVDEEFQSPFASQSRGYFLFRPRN-NH2) [C2 = Cys(PEG)240 kDa from Nektar (mPEG2-MAL-40 k)]"
  propertyLabel: "% Activity"
  value: 94.4

Continue with the next substance.
Fill blank: measured % Activity of the substance H-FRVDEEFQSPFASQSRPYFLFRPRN-NH2 [NMU4] is ____. 97.0

Sourced from patent US20100075907A1
